System: PC-3 prostate
assay.procedure: NCI tumour cell line growth inhibition, 48 h
property.label: TGI

Solved entries (count: 2):
>  <compound>
CCOC(=O)/C=C/[C@H](O[Si](CC)(CC)CC)C(C)(C)C

>  <TGI>
> 100 µM

$$$$
>  <compound>
CCCOc1ccc2sc(NC(=O)OC)nc2c1

>  <TGI>
> 100 µM

$$$$

Please turn your attention to the following entry.
Name the recorded TGI for O=C(CSC1CCc2ccccc21)N/N=C/c1ccccc1O (stereo not drawn) . 75.8 µM

====

Test system: MDA-MB-231 breast
assay.procedure: NCI tumour cell line growth inhibition, 48 h
property.label: TGI (µM)
Provide the reading as a plain figure in µM.

Solved cases below.
>  <smiles.representation>
CCOC(=O)c1c(NC(=O)c2cccc(C(F)(F)F)c2)sc2c(CN(C)C)c(O)ccc12

>  <unit.annotation>
µM

>  <TGI>
15.2

$$$$
>  <smiles.representation>
COc1cc(OC)c(/C=C/c2c3ccccc3cc[n+]2C)c(OC)c1

>  <unit.annotation>
µM

>  <TGI>
31.4

$$$$

Query: TGI; subject: "O=C(c1ccccc1)c1c(-c2ccccc2)n(-c2ccccc2)[nH]c(=O)c1=O" 84.9

====

Listed here: items and their measured TGI.
Tested on: NCI/ADR-RES ovarian
assay.procedure: NCI tumour cell line growth inhibition, 48 h

Some solved cases for reference:
>  <compound>
C/C(=N/NC(=S)Nc1ccc(Cl)cc1)c1cccc(/C(C)=N\NC(=S)Nc2ccc(Cl)cc2)n1

>  <property.label>
TGI

>  <result>
91.3 µM

$$$$
>  <compound>
Ic1cccc(/C=C/CN2CCN(CCOC(c3ccccc3)c3ccccc3)CC2)c1

>  <property.label>
TGI

>  <result>
34.7 µM

$$$$
>  <compound>
NCCSc1nc(-c2ccccc2)c(-c2ccccc2)o1

>  <property.label>
TGI

>  <result>
> 100 µM

$$$$

// next item, TGI requested
Consider the compound O=C(O)C1C2C=CC(C2)C1c1ccccc1 (centres undefined) and give its measured TGI. > 100 µM

====

System: SF-539 CNS
assay.procedure: NCI tumour cell line growth inhibition, 48 h
property.label: TGI

Some compounds with recorded TGI:
>  <compound>
Cn1c(=O)oc2cc(C(O)CN3CCN(Cc4ccccn4)CC3)c(Cl)cc21 (stereo unspecified)

>  <TGI>
> 100 µM

$$$$
>  <compound>
C1=C\COCc2cc(ccc2OCCN2CCCC2)Nc2nccc(n2)-c2cccc(c2)COC/1

>  <TGI>
5.71 µM

$$$$
>  <compound>
COc1cc(C(C)=O)cc(C(=O)N(C(C)C)C(C)C)c1[Si](C)(C)C

>  <TGI>
> 100 µM

$$$$
>  <compound>
Cc1ccc(S(=O)(=O)c2ccc(N)cc2)cc1

>  <TGI>
> 100 µM

$$$$

For the compound "O=C(Nc1nncs1)NS(=O)(=O)n1c(=S)sc2ccccc21" , what TGI is on record? > 100 µM

Name the reported TGI value associated with the compound "Cc1ccccc1N/C(=C(/C(Cl)=C(Cl)Cl)[N+](=O)[O-])n1nnc2ccccc21" 39.1 µM

====

System: NCI/ADR-RES ovarian
assay.procedure: NCI tumour cell line growth inhibition, 48 h
Catalogue of TGI values
// return numeric value only (unit: µM, not printed)

Would you please look over these solved cases?
>  <molecule>
c1ccc(NN=C(c2ccccn2)c2ccccn2)nc1

>  <TGI (µM)>
5.05

$$$$
>  <molecule>
COc1ccc(CCNC(=O)c2ccc(NC3=C(Cl)C(=O)N(Cc4ccccc4)C3=O)cc2)cc1OC

>  <TGI (µM)>
64.4

$$$$
>  <molecule>
CN1C(=O)/C(=C/c2c(Cl)n(C)c3ccccc23)c2ccccc21

>  <TGI (µM)>
5.17

$$$$
>  <molecule>
O=C(CSC1CCc2ccccc21)N/N=C/c1ccccc1O (centres undefined)

>  <TGI (µM)>
35

$$$$
>  <molecule>
CCN1C(=O)N(CC)C2C1NN=c1s/c(=C3\C(=O)N(CC(C)(C)C)c4ccccc43)c(=O)n12 (centres undefined)

>  <TGI (µM)>
13.3

$$$$

State the recorded TGI for this entry: CCCCCCCCCCCCC/C=C/[C@@H](O)[C@H](COC1OC(CO)C(OC2OC(CO)C(O)C(OC3(C(=O)O)CC(O)C(NC(C)=O)C(C(O)C(O)CO)O3)C2O)C(O)C1O)N=[N+]=[N-] (some centres undefined) 59.9

Can you share its TGI? I mean this molecule: "O=S(=O)(Nc1ccc(F)cc1F)c1ccc(-c2cnc(C3CC3)o2)cc1" 15

Can you look up the measured TGI of "Cc1cc(C)c(NC(=O)c2sc3nc4c(cc3c2N)CN(Cc2ccccc2)CC4)c(C)c1" for me? 6.24

So what's the measured TGI for this one? "CC(=O)O/C(=C1\C[C@H]2[C@@H]3CC=C4C[C@@H](OC(C)=O)CC[C@]4(C)[C@H]3CC[C@]2(C)C1=O)C(F)(F)F" 46.6
